assay: Inhibition of HCV NS3/4A protease; set-up: species or system Hepacivirus hominis
Reported endpoint: IC50 (nM)
The reply should be a number in nM, with the unit left off.

Query smiles | IC50 (nM)
Cc1cnc(C(=O)N[C@H]2CCCCC/C=C\[C@@H]3C[C@@]3(C(=O)NS(=O)(=O)C3CC3)NC(=O)[C@@H]3C[C@@H](Oc4nc5ccccc5c5ccccc45)CN3C2=O)cn1 | 0.18
CCC[C@H](NC(=O)[C@@H]1[C@H]2CCC[C@H]2CN1C(=O)[C@@H](NC(=O)[C@@H](NC(=O)c1cnccn1)C1CCCCC1)C(C)(C)C)C(=O)C(=O)NC1CC1 | 1030

Kindly consider the entry below.
IC50 for C=C[C@@H]1C[C@]1(NC(=O)[C@@H]1C[C@@H](Oc2ncc(OC)c3ccc(Cl)cc23)CN1C(=O)[C@@H](NC(=O)OC(C)(C)C)C(C)(C)C)C(=O)NS(=O)(=O)C1CC1 is 2.6

###

assay: Inhibition of HCV NS3/4A protease using AcDTEDVVP(Nva)-O-PAP as substrate pretreated with substrate for 3 mins followed by enzyme addition measured after 60 mins by spectrophotometric method; parameters: species or system Hepacivirus hominis
Reported endpoint: Ki (nM)
The reply should be a number in nM, with the unit left off.

Ki for CC(C)(C)NC(=O)N[C@H](C(=O)N1C[C@H]2[C@@H]([C@H]1C(=O)NC(CC1CCC1)C(=O)C(N)=O)C2(C)C)C(C)(C)C (stereo partly specified) is 14
